# Tested on: 361931-004-R-J1-PDC multicell spheroid viability
# Protocol Notes: Anticancer human tumor 361931-004-R-J1-PDC patient-derived colon adenocarcinoma cell line growth inhibition [PI3K]
# Condition Notes: compound 1 µM; stronger effect = lower value
Please provide measured viability, T/C for the entries that follow.

Ask: If you can, please state the reported viability, T/C value of COc1c(OCCCN2CCOCC2)ccc2c3n(c(=NC(=O)c4cnc(N)nc4)nc12)CCN3 .
Result: 22.8% [middle of 8 runs]

Ask: If you can, please state the reported viability, T/C value of C#Cc1c(F)ccc2cc(O)cc(-c3ncc4c(N5CC6CCC(C5)N6)nc(OCC56CCCN5CC(F)C6)nc4c3F)c12 (stereo not drawn) .
Result: 104% [middle of 4 runs]

Ask: If you can, please state the reported viability, T/C value of CCCS(=O)(=O)Nc1ccc(F)c(C(=O)c2c[nH]c3ncc(-c4ccc(Cl)cc4)cc23)c1F .
Result: 92.3% [middle of 4 runs]

====

# Tested on: 361931-004-R-J1-PDC multicell spheroid viability
# Protocol Notes: Anticancer human tumor 361931-004-R-J1-PDC cell line growth inhibition [PI3K];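 also: spheroids exposed to agents for seven days before readout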
# Condition Notes: curve of first compound; second compound 10 µM
Please provide measured pIC50 for the entries that follow.
Scale for pIC50: -log10 of concentration given in mol/L; no unit attached.

Ask: If you can, please state the reported pIC50 value of Cn1nccc1Nc1nccc(-c2ccn(C(CO)c3ccc(Cl)c(F)c3)c(=O)c2)n1 (stereo unspecified) + CC(Nc1ncnc2nc[nH]c12)c1cc2cccc(Cl)c2c(=O)n1-c1ccccc1 .
Result: 5.29

Ask: If you can, please state the reported pIC50 value of CC(C)n1nc(-c2ccc3oc(N)nc3c2)c2c(N)ncnc21 + Cc1nc(NC(=O)N2CCCC2C(N)=O)sc1-c1ccnc(C(C)(C)C(F)(F)F)c1 .
Result: 7.67

Ask: If you can, please state the reported pIC50 value of CC1(C)CCC(Nc2ncc(C(F)(F)F)c(-c3c[nH]c4c(P(C)(C)=O)c(C#N)ccc34)n2)CN1 (stereo unspecified) + CC(Nc1ncnc2nc[nH]c12)c1cc2cccc(Cl)c2c(=O)n1-c1ccccc1 .
Result: 5.33

====

Please provide measured viability, T/C for the entries that follow.
# Test system: 361931-004-R-J1-PDC multicell spheroid viability
# Protocol Notes: Anticancer human tumor 361931-004-R-J1-PDC cell line growth inhibition [PI3K];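 also: spheroids exposed to agents for seven days before readout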
# Condition Notes: second compound 3.16 µM; first compound 0.316 µM; stronger effect = lower value
The response must be a number in % with no trailing unit.

Ask: If you can, please state the reported viability, T/C value of C=CC(=O)N1CCN(c2nc(=O)n(-c3c(C)ccnc3C(C)C)c3nc(-c4c(O)cccc4F)c(F)cc23)C(C)C1 (stereo not drawn) + CC(Nc1ncnc2nc[nH]c12)c1cc2cccc(Cl)c2c(=O)n1-c1ccccc1 .
Result: 99.9

Ask: If you can, please state the reported viability, T/C value of CCN1CCN(Cc2ccc(Nc3ncc(F)c(-c4cc(F)c5nc(C)n(C(C)C)c5c4)n3)nc2)CC1 + Cc1nc(NC(=O)N2CCCC2C(N)=O)sc1-c1ccnc(C(C)(C)C(F)(F)F)c1 .
Result: 46

Ask: If you can, please state the reported viability, T/C value of CC1(C)CCC(Nc2ncc(C(F)(F)F)c(-c3c[nH]c4c(P(C)(C)=O)c(C#N)ccc34)n2)CN1 (stereo not drawn) + CC(Nc1ncnc2nc[nH]c12)c1cc2cccc(Cl)c2c(=O)n1-c1ccccc1 .
Result: 95.8

====

# Test system: 361931-004-R-J1-PDC multicell spheroid viability
# Protocol Notes: Anticancer human tumor 361931-004-R-J1-PDC cell line growth inhibition [PI3K];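 also: spheroids exposed to agents for seven days before readout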
# Condition Notes: second compound 0.01 µM; first compound 0.0316 µM; stronger effect = lower value
# Source text: Combinatorial screen of targeted agents with the PI3K inhibitors inavolisib, alpelisib, duvelisib, and copanlisib in multi-cell type tumor spheroids A high-throughput screen of multi-cell type tumor spheroids was designed to identify active combinations of targeted small molecules and PI3K pathway inhibitors. […] Compounds. […] If the clinical Cmax for an agent had not been determined, the highest concentration tested was 10 microM. […]
Please provide measured viability, T/C for the entries that follow.
The response must be a number in % with no trailing unit.

Ask: If you can, please state the reported viability, T/C value of CC(C)NCC(C(=O)N1CCN(c2ncnc3c2C(C)CC3O)CC1)c1ccc(Cl)cc1 (stereo not drawn) + CC(Nc1ccc2c(c1)OCCn1cc(N3C(=O)OCC3C(F)F)nc1-2)C(N)=O .
Result: 105

Ask: If you can, please state the reported viability, T/C value of CCN1CCN(Cc2ccc(Nc3ncc(F)c(-c4cc(F)c5nc(C)n(C(C)C)c5c4)n3)nc2)CC1 + CC(Nc1ccc2c(c1)OCCn1cc(N3C(=O)OCC3C(F)F)nc1-2)C(N)=O .
Result: 77.5

Ask: If you can, please state the reported viability, T/C value of CC(Cn1ccc(-c2ccc(C#N)c(Cl)c2)n1)NC(=O)c1cc(C(C)O)[nH]n1 (stereo not drawn) + COc1c(OCCCN2CCOCC2)ccc2c3n(c(=NC(=O)c4cnc(N)nc4)nc12)CCN3 .
Result: 102

Ask: If you can, please state the reported viability, T/C value of CC(C)n1nc(-c2ccc3oc(N)nc3c2)c2c(N)ncnc21 + COc1c(OCCCN2CCOCC2)ccc2c3n(c(=NC(=O)c4cnc(N)nc4)nc12)CCN3 .
Result: 99.2

Ask: If you can, please state the reported viability, T/C value of CC(=O)c1c(C)c2cnc(Nc3ccc(N4CCNCC4)cn3)nc2n(C2CCCC2)c1=O + COc1c(OCCCN2CCOCC2)ccc2c3n(c(=NC(=O)c4cnc(N)nc4)nc12)CCN3 .
Result: 95.4

Ask: If you can, please state the reported viability, T/C value of C#Cc1c(F)ccc2cc(O)cc(-c3ncc4c(N5CC6CCC(C5)N6)nc(OCC56CCCN5CC(F)C6)nc4c3F)c12 (stereo not drawn) + COc1c(OCCCN2CCOCC2)ccc2c3n(c(=NC(=O)c4cnc(N)nc4)nc12)CCN3 .
Result: 107

Ask: If you can, please state the reported viability, T/C value of CCCS(=O)(=O)Nc1ccc(F)c(C(=O)c2c[nH]c3ncc(-c4ccc(Cl)cc4)cc23)c1F + COc1c(OCCCN2CCOCC2)ccc2c3n(c(=NC(=O)c4cnc(N)nc4)nc12)CCN3 .
Result: 107

Ask: If you can, please state the reported viability, T/C value of CC(Cn1ccc(-c2ccc(C#N)c(Cl)c2)n1)NC(=O)c1cc(C(C)O)[nH]n1 (stereo not drawn) + CC(Nc1ccc2c(c1)OCCn1cc(N3C(=O)OCC3C(F)F)nc1-2)C(N)=O .
Result: 98.3

Ask: If you can, please state the reported viability, T/C value of CNC(=O)c1ccc(N2C(=S)N(c3ccc(C#N)c(C(F)(F)F)c3)C(=O)C2(C)C)cc1F + COc1c(OCCCN2CCOCC2)ccc2c3n(c(=NC(=O)c4cnc(N)nc4)nc12)CCN3 .
Result: 95.5

Ask: If you can, please state the reported viability, T/C value of CC(=O)c1c(C)c2cnc(Nc3ccc(N4CCNCC4)cn3)nc2n(C2CCCC2)c1=O + CC(Nc1ccc2c(c1)OCCn1cc(N3C(=O)OCC3C(F)F)nc1-2)C(N)=O .
Result: 99.1

Ask: If you can, please state the reported viability, T/C value of C[C@@H](NC(=O)c1ncnc(N)c1Cl)c1ncc(C(=O)Nc2cc(C(F)(F)F)c(Cl)cn2)s1 + CC(Nc1ccc2c(c1)OCCn1cc(N3C(=O)OCC3C(F)F)nc1-2)C(N)=O .
Result: 110

Ask: If you can, please state the reported viability, T/C value of CC1(C)CCC(CN2CCN(c3ccc(C(=O)NS(=O)(=O)c4ccc(NCC5CCOCC5)c([N+](=O)[O-])c4)c(Oc4cnc5[nH]ccc5c4)c3)CC2)=C(c2ccc(Cl)cc2)C1 + COc1c(OCCCN2CCOCC2)ccc2c3n(c(=NC(=O)c4cnc(N)nc4)nc12)CCN3 .
Result: 106

Ask: If you can, please state the reported viability, T/C value of Cn1ncc(Cl)c1-c1cc(C(=O)NC(CN)Cc2cccc(F)c2)sc1Cl (stereo not drawn) + COc1c(OCCCN2CCOCC2)ccc2c3n(c(=NC(=O)c4cnc(N)nc4)nc12)CCN3 .
Result: 104

====

Please provide measured viability, T/C for the entries that follow.
# Test system: 361931-004-R-J1-PDC multicell spheroid viability
# Protocol Notes: Anticancer human tumor 361931-004-R-J1-PDC cell line growth inhibition [PI3K];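 also: spheroids exposed to agents for seven days before readout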
# Condition Notes: second compound 0.1 µM; first compound 10 µM; stronger effect = lower value
# Description: Combinatorial screen of targeted agents with the PI3K inhibitors inavolisib, alpelisib, duvelisib, and copanlisib in multi-cell type tumor spheroids A high-throughput screen of multi-cell type tumor spheroids was designed to identify active combinations of targeted small molecules and PI3K pathway inhibitors. […] Compounds. […] If the clinical Cmax for an agent had not been determined, the highest concentration tested was 10 microM. […]
The response must be a number in % with no trailing unit.

Ask: Could you share what viability, T/C was measured for CC1(C)CCC(Nc2ncc(C(F)(F)F)c(-c3c[nH]c4c(P(C)(C)=O)c(C#N)ccc34)n2)CN1 (stereo unspecified) + Cc1nc(NC(=O)N2CCCC2C(N)=O)sc1-c1ccnc(C(C)(C)C(F)(F)F)c1 , tested on 361931-004-R-J1-PDC multicell spheroid viability?
Result: 7.04

Ask: Could you share what viability, T/C was measured for Cn1nccc1Nc1nccc(-c2ccn(C(CO)c3ccc(Cl)c(F)c3)c(=O)c2)n1 (stereo unspecified) + CC(Nc1ccc2c(c1)OCCn1cc(N3C(=O)OCC3C(F)F)nc1-2)C(N)=O , tested on 361931-004-R-J1-PDC multicell spheroid viability?
Result: 25.5

Ask: Could you share what viability, T/C was measured for Cn1nccc1Nc1nccc(-c2ccn(C(CO)c3ccc(Cl)c(F)c3)c(=O)c2)n1 (stereo unspecified) + Cc1nc(NC(=O)N2CCCC2C(N)=O)sc1-c1ccnc(C(C)(C)C(F)(F)F)c1 , tested on 361931-004-R-J1-PDC multicell spheroid viability?
Result: 42.9

Ask: Could you share what viability, T/C was measured for CNC(=O)c1ccc(N2C(=S)N(c3ccc(C#N)c(C(F)(F)F)c3)C(=O)C2(C)C)cc1F + Cc1nc(NC(=O)N2CCCC2C(N)=O)sc1-c1ccnc(C(C)(C)C(F)(F)F)c1 , tested on 361931-004-R-J1-PDC multicell spheroid viability?
Result: 86.6

Ask: Could you share what viability, T/C was measured for Cn1ncc(Cl)c1-c1cc(C(=O)NC(CN)Cc2cccc(F)c2)sc1Cl (stereo unspecified) + Cc1nc(NC(=O)N2CCCC2C(N)=O)sc1-c1ccnc(C(C)(C)C(F)(F)F)c1 , tested on 361931-004-R-J1-PDC multicell spheroid viability?
Result: 20.5

Ask: Could you share what viability, T/C was measured for CCCS(=O)(=O)Nc1ccc(F)c(C(=O)c2c[nH]c3ncc(-c4ccc(Cl)cc4)cc23)c1F + Cc1nc(NC(=O)N2CCCC2C(N)=O)sc1-c1ccnc(C(C)(C)C(F)(F)F)c1 , tested on 361931-004-R-J1-PDC multicell spheroid viability?
Result: 4.97

Ask: Could you share what viability, T/C was measured for CC1(C)CCC(CN2CCN(c3ccc(C(=O)NS(=O)(=O)c4ccc(NCC5CCOCC5)c([N+](=O)[O-])c4)c(Oc4cnc5[nH]ccc5c4)c3)CC2)=C(c2ccc(Cl)cc2)C1 + Cc1nc(NC(=O)N2CCCC2C(N)=O)sc1-c1ccnc(C(C)(C)C(F)(F)F)c1 , tested on 361931-004-R-J1-PDC multicell spheroid viability?
Result: 1.27

Ask: Could you share what viability, T/C was measured for CC(C)NCC(C(=O)N1CCN(c2ncnc3c2C(C)CC3O)CC1)c1ccc(Cl)cc1 (stereo unspecified) + Cc1nc(NC(=O)N2CCCC2C(N)=O)sc1-c1ccnc(C(C)(C)C(F)(F)F)c1 , tested on 361931-004-R-J1-PDC multicell spheroid viability?
Result: 17.6

Ask: Could you share what viability, T/C was measured for CCCS(=O)(=O)Nc1ccc(F)c(C(=O)c2c[nH]c3ncc(-c4ccc(Cl)cc4)cc23)c1F + CC(Nc1ccc2c(c1)OCCn1cc(N3C(=O)OCC3C(F)F)nc1-2)C(N)=O , tested on 361931-004-R-J1-PDC multicell spheroid viability?
Result: 4.14

Ask: Could you share what viability, T/C was measured for C#Cc1c(F)ccc2cc(O)cc(-c3ncc4c(N5CC6CCC(C5)N6)nc(OCC56CCCN5CC(F)C6)nc4c3F)c12 (stereo unspecified) + Cc1nc(NC(=O)N2CCCC2C(N)=O)sc1-c1ccnc(C(C)(C)C(F)(F)F)c1 , tested on 361931-004-R-J1-PDC multicell spheroid viability?
Result: 61.8

Ask: Could you share what viability, T/C was measured for C[C@@H](NC(=O)c1ncnc(N)c1Cl)c1ncc(C(=O)Nc2cc(C(F)(F)F)c(Cl)cn2)s1 + COc1c(OCCCN2CCOCC2)ccc2c3n(c(=NC(=O)c4cnc(N)nc4)nc12)CCN3 , tested on 361931-004-R-J1-PDC multicell spheroid viability?
Result: 31

Ask: Could you share what viability, T/C was measured for Cn1ncc(Cl)c1-c1cc(C(=O)NC(CN)Cc2cccc(F)c2)sc1Cl (stereo unspecified) + COc1c(OCCCN2CCOCC2)ccc2c3n(c(=NC(=O)c4cnc(N)nc4)nc12)CCN3 , tested on 361931-004-R-J1-PDC multicell spheroid viability?
Result: 19

Ask: Could you share what viability, T/C was measured for C[C@@H](NC(=O)c1ncnc(N)c1Cl)c1ncc(C(=O)Nc2cc(C(F)(F)F)c(Cl)cn2)s1 + Cc1nc(NC(=O)N2CCCC2C(N)=O)sc1-c1ccnc(C(C)(C)C(F)(F)F)c1 , tested on 361931-004-R-J1-PDC multicell spheroid viability?
Result: 80.5

Ask: Could you share what viability, T/C was measured for CC(C)NCC(C(=O)N1CCN(c2ncnc3c2C(C)CC3O)CC1)c1ccc(Cl)cc1 (stereo unspecified) + CC(Nc1ncnc2nc[nH]c12)c1cc2cccc(Cl)c2c(=O)n1-c1ccccc1 , tested on 361931-004-R-J1-PDC multicell spheroid viability?
Result: 31.7

Ask: Could you share what viability, T/C was measured for CC(Cn1ccc(-c2ccc(C#N)c(Cl)c2)n1)NC(=O)c1cc(C(C)O)[nH]n1 (stereo unspecified) + CC(Nc1ccc2c(c1)OCCn1cc(N3C(=O)OCC3C(F)F)nc1-2)C(N)=O , tested on 361931-004-R-J1-PDC multicell spheroid viability?
Result: 72

Ask: Could you share what viability, T/C was measured for CC(Cn1ccc(-c2ccc(C#N)c(Cl)c2)n1)NC(=O)c1cc(C(C)O)[nH]n1 (stereo unspecified) + Cc1nc(NC(=O)N2CCCC2C(N)=O)sc1-c1ccnc(C(C)(C)C(F)(F)F)c1 , tested on 361931-004-R-J1-PDC multicell spheroid viability?
Result: 101
